System: S. aureus strain MW2
Assay: Minimal inhibitory concentration (MIC) assay
Format: cell-based
Settings: Staphylococcus aureus; growing MRSA MW2 cells; read-out: MIC
Protocol: Bacterial strains, growth conditions and persister isolation. […] Minimal inhibitory concentration (MIC) assay. The MICs of antibiotics were determined by the standard micro-dilution method recommended by the Clinical and Laboratory Standards Institute. […]
Reported log10 MIC by item:
property.label: log10 MIC (log10 of the value in µg/mL)

INSERT INTO assay_data (compound_string, property_label, value_observed) VALUES
  ('O=C(O)c1cc(O)c2cc(-c3cc(C45CC6CC(CC(C6)C4)C5)ccc3O)cc(O)c2c1', 'log10 MIC', 0.90),
  ('O=C(O)c1cc(O)c2cc(-c3cc(C45CC6CC(CC(C6)C4)C5)ccc3O)ccc2c1', 'log10 MIC', 0.60),
  ('O=C(O)c1ccc2cc(-c3ccc(O)c(Cc4ccccc4)c3)ccc2c1', 'log10 MIC', 0.30),
  ('O=C(O)c1ccc2cc(-c3cc(C45CC6CC(CC(C6)C4)C5)ccc3O)ccc2c1', 'log10 MIC', 1.51),
  ('O=C(O)c1cc(O)c2cc(-c3ccc(O)c(C45CC6CC(CC(C6)C4)C5)c3)ccc2c1', 'log10 MIC', 0.60),
  ('O=C(O)c1cc(O)c2cc(-c3ccc(O)c(C45CC6CC(CC(C6)C4)C5)c3)cc(O)c2c1', 'log10 MIC', 1.20);

====

Experiment: Pharmacokinetic analysis
Format: in vivo, mice
Details: female, CD1, mouse, ip; mice, single injection 20 mg/kg i.p., plasma; read-out: Tmax (the time taken to reach the maximum concentration)
Procedure: Pharmacokinetic analysis. Pharmacokinetic experiments were conducted by SAI Life Sciences Ltd. (Pune, India) in accordance with guidelines provided by the Committee for the Purpose of Control and Supervision of Experiments on Animals (CPCSEA). The Institutional Animal Ethics Committee (IAEC) approved the experimental protocol. […] All samples were processed for analysis by protein precipitation using acetonitrile and analyzed with fit-for-purpose LC/MS/MS method (LLOQ=4.90 ng/mL for plasma). […]
property.label: Tmax (min)

INSERT INTO results (compound_string, property_label, measurement_units, value_observed) VALUES
  ('OCc1ccc2cc(-c3ccc(O)c(C45CC6CC(CC(C6)C4)C5)c3)ccc2c1', 'Tmax', 'min', 30);
